- testName: cn = amount concentration of the nth substance listed, in mol/dm3
- measurementSetup: 313.15 K; 101 kPa; Liquid; c1 = 0.3
Rule: viscosity below 0.8 mPa·s gives met, anything at or above gives not met.

- OC[C@@H](O)[C@@H](O)[C@H](O)[C@@H](O)CO [D-sorbitol] + O: met
- OC[C@@H](O)[C@@H](O[C@H]1O[C@H](CO)[C@@H](O)[C@H](O)[C@H]1O)[C@H](O)[C@@H](O)CO [4-O-α-D-glucopyranosyl-D-glucitol] + O: not met
- OC[C@@H](O)[C@@H](O)CO [meso-1,2,3,4-butanetetrol] + O: met
- OC[C@@H](O)[C@H](O)[C@@H](O)CO [xylitol] + O: met
